- System: IRE1-XBP1s (XBP1-RLuc splicing reporter in HEK293 T-REx cells)
- test_summary: IRE1-XBP1s activation assay (XBP1-RLuc splicing reporter, HEK293 T-REx cells, luminescence relative to thapsigargin)
- Format: cell-based
- condition: 18 h, compound 10 μM, HEK293 T-REx XBP1-RLuc reporter cells, relative to thapsigargin (Tg) 500 nM, read-out: Activity (IRE1-XBP1s activation, luminescence as % signal relative to thapsigargin, % Tg)
measurement_kind: activation at 10 µM

Challenge: Recorded activation at 10 µM for Cc1ccc(OCCN(C)C(=O)Cn2cc(NC(=O)CCNC(=O)c3ncc(F)cn3)cn2)cc1 , please?
Response given: < 30%

Challenge: Need activation at 10 µM, item COc1ccc(NCCC(=O)Nc2cnn(CC(=O)N(C)CCOc3ccc(C)cc3)c2)c(C)n1
Response given: 30 to 50%

Challenge: Look at this compound and give its reported activation at 10 µM. Cc1ccc(OCCN(C)C(=O)Cn2cc(NC(=O)CCNc3cc(N)ccn3)cn2)cc1
Response given: > 50%

Challenge: Which activation at 10 µM value is on record for CN(CCOc1ccc(Cl)nc1)C(=O)Cn1cc(NC(=O)CCOc2ccccc2F)cn1 ?
Response given: 30 to 50%

Challenge: Entry under review: Cc1ccc(OC[C@@H](C)N(C)C(=O)Cn2cc(NC(=O)CCNc3ccnc(O)n3)cn2)cc1 . Reported activation at 10 µM?
Response given: < 30%

Challenge: Request the reported activation at 10 µM associated with COC(=O)Nc1cc(OCCC(=O)Nc2cnn(CC(=O)N(C)CCOc3ccc(C)cc3)c2)ccn1
Response given: 30 to 50%

Challenge: # query: activation at 10 µM of entry CN(CCOc1cc(C(F)F)on1)C(=O)Cn1cc(NC(=O)CCNc2ccnc(F)n2)cn1
Response given: < 30%

Challenge: activation at 10 µM for Cc1ccc(OCCN(C)C(=O)Cn2cc(NC(=O)CCOC3CCC(C)(C)CC3)cn2)cc1 ?
Response given: > 50%

Challenge: May I ask what activation at 10 µM has been recorded for Cc1ccc(OCCN(C)C(=O)Cn2cc(NC(=O)CCNc3cncnc3C(C)C)cn2)cc1 ?
Response given: < 30%

Challenge: Consider the compound Cc1ccc(OCCN(C)C(=O)Cn2cc(NC(=O)CCNc3cccc(C#N)n3)cn2)cc1 and give its measured activation at 10 µM.
Response given: > 50%

Challenge: Returns the measured activation at 10 µM for the input compound. Input: CN(CCOc1ccncc1)C(=O)Cn1cc(NC(=O)CCOc2ccccc2F)cn1
Response given: < 30%

Challenge: Item CN(CCOc1ccc(C(F)(F)F)cn1)C(=O)Cn1cc(NC(=O)CCOc2ccc(Cl)cc2F)cn1 has what recorded activation at 10 µM?
Response given: 30 to 50%

Challenge: Looking for the measured activation at 10 µM of Cc1ccc(OCCN(C)C(=O)Cn2cc(NC(=O)CCNc3c(F)cnc(C)c3C)cn2)cc1 , can you help?
Response given: > 50%

Challenge: // lookup activation at 10 µM for Cc1cc(OCCN(C)C(=O)Cn2cc(NC(=O)CCNc3ccnc(F)n3)cn2)no1
Response given: < 30%

Challenge: // query activation at 10 µM value for entry Cc1ccc(OCCN(C)C(=O)Cn2cc(NC(=O)COc3ccc4ccccc4n3)cn2)cc1
Response given: < 30%

Challenge: Quick one: activation at 10 µM of CC(C)c1cncc(F)c1OCCC(=O)Nc1cnn(CC(=O)N(C)CCOc2ccc(OC(F)(F)F)cn2)c1 ?
Response given: > 50%

Challenge: Any idea what activation at 10 µM was measured for Cc1ncc(OCCN(C)C(=O)Cn2cc(NC(=O)CCNc3ccc(F)nc3C)cn2)cn1 ?
Response given: < 30%

Challenge: Quick one: activation at 10 µM of Cc1ccc(OCCN(C)C(=O)Cn2cc(NC(=O)CCOc3ccnc(Cl)c3)cn2)cc1 ?
Response given: > 50%

Challenge: Reported activation at 10 µM for CN(CCOc1ccc(C(F)(F)F)cn1)C(=O)Cn1cc(NC(=O)CCNc2ccnc(O)n2)cn1 : what is it?
Response given: < 30%

Challenge: Return reported activation at 10 µM; argument: Cc1ccc(OCCN(C)C(=O)Cn2cc(NC(=O)CCNc3c(F)cncc3Cl)cn2)cc1
Response given: 30 to 50%

Challenge: Fill in: activation at 10 µM of C=C(C)c1cccc(OCCC(=O)Nc2cnn(CC(=O)N(C)CCOc3ccc(C)cc3)c2)n1 is ___
Response given: < 30%

Challenge: What measured activation at 10 µM goes with Cc1ccc(OCCN(C)C(=O)Cn2cc(NC(=O)CCOc3c(F)cccc3Cl)cn2)cc1 ?
Response given: 30 to 50%

Challenge: Data request, read-out activation at 10 µM, for Cc1ccc(OCCN(C)C(=O)Cn2cc(NC(=O)/C=C/Oc3cccnc3N)cn2)cc1
Response given: < 30%

Challenge: # lookup: activation at 10 µM of Cc1ccc(OCCN(C)C(=O)Cn2cc(NC(=O)CCNc3ccnc4nccn34)cn2)cc1
Response given: < 30%

Challenge: Reported activation at 10 µM for Cc1ccc(OCCC(=O)Nc2cnn(CC(=O)N(C)CCOc3ccc(C)c(Cl)c3)c2)c(F)c1 : what is it?
Response given: < 30%

Challenge: Field request: activation at 10 µM | item: Cc1ccc(OCCN(C)C(=O)Cn2cc(NC(=O)CCNc3cc(F)ncc3F)cn2)cc1
Response given: < 30%

Challenge: # query: activation at 10 µM of entry Cc1ccc(OCCN(C)C(=O)Cn2cc(NC(=O)[C@H](C)CNc3ccc(F)nc3C)cn2)cc1
Response given: 30 to 50%

Challenge: Find the recorded activation at 10 µM belonging to CCc1ccc(OCCN(C)C(=O)Cn2cc(NC(=O)CCOc3ccccc3)cn2)cc1 and report it.
Response given: > 50%

Challenge: Requested field: activation at 10 µM. Item: Cc1ccc(OCCN(C)C(=O)Cn2cc(NC(=O)COc3c(F)cncc3C(C)C)cn2)cc1
Response given: < 30%

Challenge: Requested read-out: activation at 10 µM. Entry: CN(CCOc1cc(Cl)ccn1)C(=O)Cn1cc(NC(=O)CCOc2ccccc2F)cn1
Response given: < 30%

Challenge: What does the record list as activation at 10 µM for Cc1ccc(OCCN(C)C(=O)Cn2cc(NC(=O)[C@H](C)CNc3ccnc(F)n3)cn2)cc1 ?
Response given: 30 to 50%

Challenge: Bench note: what activation at 10 µM did CC(C)c1cncc(F)c1OCCC(=O)Nc1cnn(CC(=O)N(C)CCOc2cnc(C(F)(F)F)cn2)c1 show?
Response given: > 50%
